Source of measurements: the METLIN SMRT retention time set (Domingo-Almenara et al. 2019)

- Assay protocol: gradient 5% acetonitrile 3 min, to 50% in 2 min, to 85% in 15 min, held 3 min, 100 µL/min
- Condition notes: column: Zorbax Extend-C18 2.1 x 50 mm; eluents: water / acetonitrile, 0.1% formic acid
Quantity: RP-LC retention time (s)

{"Molecule": "O=C(NC1CCCCC1)C1CCCN(c2ccc(=O)n(-c3ccc(F)cc3)n2)C1 (stereo not given)", "Quantity": "RP-LC retention time", "Unit": "s", "Observed result": 804}
{"Molecule": "CCn1c(=O)sc2cc(S(=O)(=O)N3CCC(C(=O)NCc4ccc(OC)cc4)CC3)ccc21", "Quantity": "RP-LC retention time", "Unit": "s", "Observed result": 978}
{"Molecule": "O=C(Nc1ccc(F)c(F)c1)C1CCCN(S(=O)(=O)Cc2ccc(F)cc2)C1 (stereo not given)", "Quantity": "RP-LC retention time", "Unit": "s", "Observed result": 990}
{"Molecule": "Cc1ccc(Cl)cc1NC(=O)NCCc1cn(CC(C)C)c2ncccc12", "Quantity": "RP-LC retention time", "Unit": "s", "Observed result": 946}
{"Molecule": "Cc1cc(F)ccc1NC(=O)C1CCN(C(=O)c2ncn3c2COC(c2ccc(F)cc2)C3)CC1 (stereo not given)", "Quantity": "RP-LC retention time", "Unit": "s", "Observed result": 736}

----------
- Assay protocol: gradient 5% acetonitrile 3 min, to 50% in 2 min, to 85% in 15 min, held 3 min, 100 µL/min
- Condition notes: column: Zorbax Extend-C18 2.1 x 50 mm; eluents: water / acetonitrile, 0.1% formic acid
Quantity: RP-LC retention time (s)

{"Smiles notation": "O=C(Cn1nc2c3cc(F)ccc3ncn2c1=O)Nc1ccc(Cl)cc1", "Unit": "s", "Observed result": 744}
{"Smiles notation": "COc1ccc(CC(=O)N2CCc3cc(-c4ccno4)ccc32)cc1", "Unit": "s", "Observed result": 909}
{"Smiles notation": "Cc1ccc(-c2cn3c(CC(=O)Nc4ccc(F)cc4Cl)csc3n2)cc1C", "Unit": "s", "Observed result": 911}
{"Smiles notation": "CCOC(=O)c1sc(NC(=O)Cn2nc3c(cc2=O)CCCCC3)nc1C", "Unit": "s", "Observed result": 853}
{"Smiles notation": "O=C(Cn1ccc2ccccc21)N1CCN(c2ccc(C(F)(F)F)cn2)CC1", "Unit": "s", "Observed result": 982}
{"Smiles notation": "CCOc1ccc(-c2ccc(=O)n(Cc3nc(-c4ccc5c(c4)OCO5)no3)n2)cc1", "Unit": "s", "Observed result": 1050}
{"Smiles notation": "CCCc1cc(SCC(=O)Nc2nccs2)ncn1", "Unit": "s", "Observed result": 692}
{"Smiles notation": "COc1ccc(-c2nc(-c3cn(-c4cccc(Cl)c4)nn3)no2)cc1OC", "Unit": "s", "Observed result": 1040}
{"Smiles notation": "O=C([C@@H]1C[C@H](F)CN1C(=O)NCc1ccc(F)cc1)N1CCc2ccccc2C1", "Unit": "s", "Observed result": 747}

----------
- Assay protocol: gradient 5% acetonitrile 3 min, to 50% in 2 min, to 85% in 15 min, held 3 min, 100 µL/min
- Condition notes: column: Zorbax Extend-C18 2.1 x 50 mm; eluents: water / acetonitrile, 0.1% formic acid
Quantity: RP-LC retention time (s)

{"Compound": "COc1ccccc1C(=O)N1CCc2c(c(-c3nnc(-c4ccccc4Cl)o3)nn2C)C1", "RP-LC retention time / s": 806}
{"Compound": "O=C(Nc1ccccc1)c1ccc(N2CCC(NCc3ccc(F)c(F)c3)C2)nc1 (configuration not stated)", "RP-LC retention time / s": 568}
{"Compound": "CCc1nn2c(CNS(=O)(=O)c3ccccc3C)c(-c3ccccc3)nc2s1", "RP-LC retention time / s": 921}
{"Compound": "COc1ccc(NC(=O)C(C)n2cnc3nc4c(cc3c2=O)CCCC4)cc1OC (configuration not stated)", "RP-LC retention time / s": 685}
{"Compound": "O=C(NCc1ccc(F)cc1)c1ccc2c(c1)nc1n2CCN(Cc2ccccc2)C1=O", "RP-LC retention time / s": 775}

[P] CCN1C(=O)c2cccnc2Sc2cc(CNC(=O)Cc3ccc(F)cc3)ccc21
[Q] COc1ccccc1N1CCN(S(=O)(=O)c2cc(-c3cc(C(F)(F)F)on3)sc2C)CC1
Please choose the item with the lower RP-LC retention time value from this pair: P and Q Respond with the label that goes with your answer. P
